Reported MIC90 values are given for each entry in this list.
# Tested on: clinical isolates of multidrug-resistant Klebsiella pneumoniae (and ATCC43816)
# MEASUREMENT_NOTES: MIC determination at Fidelta, clinical isolates
# Type: cell-based
# RUN_CONDITIONS: Klebsiella pneumoniae, ATCC43816, KP-1935; Urine/ESBL, NDM; read-out: MIC 90
TEST_READOUT: MIC90 (µg/mL)

INSERT INTO measurements (compound, test_readout, measure_unit, recorded_measurement) VALUES
  ('N=C(NCCN)NC1C(O)[C@@H](CO)OC(OC2C(F)[C@H](O[C@H]3OC(CN)[C@@H](O)CC3N)C(N)C[C@H]2NC(=O)[C@@H](O)CCN)[C@@H]1O (some centres unmarked) [ABX5020, Tobra-AHB-F-Gua-2-amino-ethyl]', 'MIC90', 'µg/mL', 4),
  ('N=C(NC[C@@H]1CCCN1)NC1[C@@H](O)C(OC2[C@@H](F)[C@H](O[C@H]3OC(CN)[C@@H](O)CC3N)C(N)C[C@H]2NC(=O)[C@@H](O)CCN)O[C@H](CO)[C@H]1O (some centres unmarked) [ABX5026]', 'MIC90', 'µg/mL', 1),
  ('N=C(NC[C@@H]1CCNC1)NC1[C@@H](O)C(OC2[C@@H](F)[C@H](O[C@H]3OC(CN)[C@@H](O)CC3N)C(N)C[C@H]2NC(=O)[C@@H](O)CCN)O[C@H](CO)[C@H]1O (some centres unmarked) [ABX5039]', 'MIC90', 'µg/mL', 2),
  ('N=C(N)NC1[C@@H](O)C(OC2[C@@H](F)[C@H](O[C@H]3OC(CN)[C@@H](O)[C@H](O)C3N)C(N)C[C@H]2NC(=O)[C@@H](O)CCN)O[C@H](CO)[C@H]1O (some centres unmarked) [ABX4006, KanaB-AHB-F-Gua]', 'MIC90', 'µg/mL', 0.5),
  ('N=C(N)NC1C(O)[C@@H](CO)OC(OC2C(F)[C@H](O[C@H]3OC(CN)[C@@H](O)CC3N)C(N)C[C@H]2NC(=O)[C@@H](O)CCN)[C@@H]1O (some centres unmarked) [ABX5006, Tobra-AHB-F-Gua]', 'MIC90', 'µg/mL', 0.5);
